The reported measurements were obtained from paper PMC12041489.

# assay_name: ABTS radical cation scavenging activity assay
# measurement_parameters: read-out: ABTS radical scavenging IC50
measurement_kind: IC50 (µM)

[
  {
    "molecule": "COc1ccc(C(C)=O)c(OCc2cn(Cc3cc(=O)c(O)co3)nn2)c1 [Compound 13t]",
    "result_units": "µM",
    "endpoint_value": 45.6
  }
]

====

In this section we review reported IC50 values for a set of compounds.
# target_desc: mushroom tyrosinase (Agaricus bisporus, UniProt C7FF04)
# Sequence (C7FF04 1-392 limits assumed): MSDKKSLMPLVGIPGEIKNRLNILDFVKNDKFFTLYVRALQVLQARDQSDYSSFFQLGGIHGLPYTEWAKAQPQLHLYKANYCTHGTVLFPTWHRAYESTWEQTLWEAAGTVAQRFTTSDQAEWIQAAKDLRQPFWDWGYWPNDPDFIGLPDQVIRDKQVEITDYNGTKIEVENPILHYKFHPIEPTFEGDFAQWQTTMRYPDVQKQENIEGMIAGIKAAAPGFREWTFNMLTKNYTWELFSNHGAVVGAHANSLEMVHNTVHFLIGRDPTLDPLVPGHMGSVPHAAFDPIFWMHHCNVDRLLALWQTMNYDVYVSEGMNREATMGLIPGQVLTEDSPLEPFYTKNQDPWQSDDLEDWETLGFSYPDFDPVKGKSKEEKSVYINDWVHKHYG
# measurement_parameters: read-out: Tyrosinase inhibitory activity IC50
measurement_kind: IC50

[
  {
    "compound": "Cc1cccc(CC(=O)Nc2nnc(SCc3cn(Cc4cc(=O)c(O)co4)nn3)s2)c1 [Compound 6k]",
    "target_desc": "mushroom tyrosinase (Agaricus bisporus, UniProt C7FF04)",
    "measurement_kind": "IC50",
    "endpoint_value": "13.8 µM"
  },
  {
    "compound": "CC(=O)c1cc(C)ccc1OCc1cn(Cc2cc(=O)c(O)co2)nn1 [Compound 13o]",
    "target_desc": "mushroom tyrosinase (Agaricus bisporus, UniProt C7FF04)",
    "measurement_kind": "IC50",
    "endpoint_value": "1.83 µM"
  },
  {
    "compound": "CC(=O)c1ccc(Cl)cc1OCc1cn(Cc2cc(=O)c(O)co2)nn1 [Compound 13q]",
    "target_desc": "mushroom tyrosinase (Agaricus bisporus, UniProt C7FF04)",
    "measurement_kind": "IC50",
    "endpoint_value": "3.03 µM"
  },
  {
    "compound": "CC(=O)c1ccc(OCc2cn(Cc3cc(=O)c(O)co3)nn2)c(C)c1 [Compound 13e]",
    "target_desc": "mushroom tyrosinase (Agaricus bisporus, UniProt C7FF04)",
    "measurement_kind": "IC50",
    "endpoint_value": "1.74 µM"
  },
  {
    "compound": "Cc1ccccc1CC(=O)Nc1nnc(SCc2cn(Cc3cc(=O)c(O)co3)nn2)s1 [Compound 6j]",
    "target_desc": "mushroom tyrosinase (Agaricus bisporus, UniProt C7FF04)",
    "measurement_kind": "IC50",
    "endpoint_value": "17.3 µM"
  },
  {
    "compound": "CC(=O)c1ccc(C)cc1OCc1cn(Cc2cc(=O)c(O)co2)nn1 [Compound 13n]",
    "target_desc": "mushroom tyrosinase (Agaricus bisporus, UniProt C7FF04)",
    "measurement_kind": "IC50",
    "endpoint_value": "6.82 µM"
  },
  {
    "compound": "CC(=O)c1ccc(Br)cc1OCc1cn(Cc2cc(=O)c(O)co2)nn1 [Compound 13r]",
    "target_desc": "mushroom tyrosinase (Agaricus bisporus, UniProt C7FF04)",
    "measurement_kind": "IC50",
    "endpoint_value": "3.33 µM"
  },
  {
    "compound": "COc1ccc(CC(=O)Nc2nnc(SCc3cn(Cc4cc(=O)c(O)co4)nn3)s2)cc1 [Compound 6p]",
    "target_desc": "mushroom tyrosinase (Agaricus bisporus, UniProt C7FF04)",
    "measurement_kind": "IC50",
    "endpoint_value": "3.83 µM"
  },
  {
    "compound": "Cc1ccc(CC(=O)Nc2nnc(SCc3cn(Cc4cc(=O)c(O)co4)nn3)s2)cc1 [Compound 6l]",
    "target_desc": "mushroom tyrosinase (Agaricus bisporus, UniProt C7FF04)",
    "measurement_kind": "IC50",
    "endpoint_value": "3.29 µM"
  },
  {
    "compound": "COc1ccc(C=O)c(OCc2cn(Cc3cc(=O)c(O)co3)nn2)c1 [Compound 13j]",
    "target_desc": "mushroom tyrosinase (Agaricus bisporus, UniProt C7FF04)",
    "measurement_kind": "IC50",
    "endpoint_value": "2.82 µM"
  },
  {
    "compound": "CC(=O)c1ccc(F)cc1OCc1cn(Cc2cc(=O)c(O)co2)nn1 [Compound 13s]",
    "target_desc": "mushroom tyrosinase (Agaricus bisporus, UniProt C7FF04)",
    "measurement_kind": "IC50",
    "endpoint_value": "2.58 µM"
  }
]
